Test system: HT29 colon
experimental details: NCI tumour cell line growth inhibition, 48 h
value kind: TGI (µM)
Could you give me the number in µM? Just the number is fine.

Could you please provide reported TGI for C=C1CC(C)(c2ccc(Nc3nc4ccccc4c4occc34)cc2)OC1=O (centres undefined) ? Thanks!
12.6

Could you please provide reported TGI for CC1(C)OC2[C@@H](CNC(=O)NC(=O)NC(=O)CI)O[C@@H](n3cnc4c(NC(=O)Nc5ccccc5)ncnc43)[C@H]2O1 (some centres undefined) ? Thanks!
12.2

Could you please provide reported TGI for Nc1c(C(=O)c2ccc(Cl)cc2)[nH]c(NCc2ccccc2)c1C(=S)Nc1ccccc1 ? Thanks!
3.7

Could you please provide reported TGI for CCC[CH2][Sn]([CH2]CCC)([O]C(=O)c1cccnc1SC)[O]C(=O)c1cccnc1SC ? Thanks!
3.22

----------
System: SN12C renal
experimental details: NCI tumour cell line growth inhibition, 48 h; in the data active = GI50 below about 0.43 µM; inactive = the rest
Give one outcome, nothing more. List: T = active, F = inactive

Status in this test for C=C1C(=O)O[C@H]2[C@H]1CC/C(Cn1cc(-c3ccc(OC)cc3)nn1)=C\CC[C@@]1(C)O[C@@H]21 ?
F

Status in this test for N#Cc1c(-c2ccc(F)cc2)nc(N/N=C/c2c[nH]c3ccccc23)nc1N1CCOCC1 ?
F

Status in this test for C=CCCCCCCCCC(=O)[O][Sn]([CH2]CCC)([CH2]CCC)[CH2]CCC ?
T

Status in this test for CCN(CC)c1ccc(/C=C/c2ccc3cc(C)ccc3[n+]2CC)cc1 ?
T

Status in this test for CC[C@]1(O)C[C@@H]2CN(CCc3c([nH]c4ccccc34)[C@@](C(=O)OC)(c3cc4c(cc3OC)N(C)[C@H]3[C@@](O)(C(=O)OC)[C@H](OC(C)=O)[C@]5(CC)C=CCN6CC[C@]43[C@@H]65)C2)C1 ?
T

Status in this test for N#CSc1c[nH]c2cccc(/C=C/C(=O)/C=C(/C=C/c3cccc4[nH]cc(SC#N)c34)OB(F)F)c12 ?
F

Status in this test for CCOC(=O)[C]1([Bi]([CH3])[CH3])N=NC(C(=O)OC)=C1C(=O)OC (configuration not stated) ?
F

Status in this test for Nc1nc(Cl)c2ncn(Cc3ccc(C45CC6CC(CC(C6)C4)C5)c(O)c3)c2n1 ?
F

Status in this test for COc1cc(C2=NOC(c3cc(OC)c(OC)c(OC)c3)C2)ccc1OCCCCOc1cc2c(cc1OC)C(=O)N1CCC[C@H]1C=N2 (some centres not stated) ?
T

Status in this test for O=C1c2cc(Cl)ccc2S(=O)(=O)c2c(NCCCNCCO)nc3ccccc3c21 ?
F

Status in this test for CC(C)(C)OC(=O)N1CCc2c(sc3ncnc(N/N=C/c4cccc5ccccc45)c23)C1 ?
F

Status in this test for CN1CCN(C(=O)OCc2nc3c(N4CCOCC4)nc(Cl)nc3n2C)CC1 ?
F

----------
Exercise: for every item that follows, state its recorded TGI.
System: OVCAR-8 ovarian
experimental details: NCI tumour cell line growth inhibition, 48 h
Could you give me the number in µM? Just the number is fine.

Could you please provide reported TGI for O=C1Nc2c(C(F)(F)F)cccc2[C@]1(c1ccc(O)cc1)c1ccc(OC(F)(F)F)cc1 ? Thanks!
21.8

Could you please provide reported TGI for OC1(c2ccc(Cl)cc2)c2ccc3ccccc3c2C2=N[C@H]3CCCC[C@@H]3N21 (some centres not stated) ? Thanks!
3.45

Could you please provide reported TGI for Nc1nc(Cl)c2ncn(Cc3ccc(C45CC6CC(CC(C6)C4)C5)c(O)c3)c2n1 ? Thanks!
14.1

----------
Exercise: for every item that follows, state its recorded TGI.
Tested on: HS 578T breast
experimental details: NCI tumour cell line growth inhibition, 48 h

Identify measured TGI obtained with HS 578T breast for COc1ccc2c(c1)CN1C(=N2)CSC1c1ccccc1Cl (configuration not stated) .
82.5 µM

Identify measured TGI obtained with HS 578T breast for CCOc1cc2c(Cl)ncnc2c(OCC)c1OCC .
5.45 µM

Identify measured TGI obtained with HS 578T breast for CN1CCN(C(=O)OCc2nc3c(N4CCOCC4)nc(Cl)nc3n2C)CC1 .
5.38 µM

Identify measured TGI obtained with HS 578T breast for CC(C)(C)OC(=O)N1CCc2c(sc3ncnc(N/N=C/c4cccc5ccccc45)c23)C1 .
> 100 µM

Identify measured TGI obtained with HS 578T breast for CCN1CCC(O)(C(C(=O)O)c2ccccc2)CC1 (configuration not stated) .
> 100 µM

Identify measured TGI obtained with HS 578T breast for O=C(CSc1n[nH]c(=O)[nH]c1=O)NNC(=O)c1cccc2nc3ccccc3nc12 .
> 100 µM

Identify measured TGI obtained with HS 578T breast for O=c1c2ccccc2nc(Nc2cccc(Cl)c2)n1/N=C/C=C/c1ccccc1 .
> 100 µM

Identify measured TGI obtained with HS 578T breast for N#CSc1c[nH]c2cccc(/C=C/C(=O)/C=C(/C=C/c3cccc4[nH]cc(SC#N)c34)OB(F)F)c12 .
> 58.6 µM

Identify measured TGI obtained with HS 578T breast for Cn1c2ccccc2c2c(-c3ccccc3)[n+]3ccncc3nc21 .
> 100 µM

Identify measured TGI obtained with HS 578T breast for CC(=O)OCC(OC(C)=O)C1C[C@H]2O[C@@H]3[C@H](C[C@H]2O1)O[C@@]1(C[C@@H]3C)C[C@H](C)[C@@H]2O[C@]3(C[C@@H]2O1)C[C@H]1O[C@H]2[C@H](C)[C@H]4OC(=O)CC5CC[C@H]6OC7[C@H]8O[C@]9(CC[C@H]%10CC(O)(CO)[C@H](CC[C@H]%11C[C@@H](C)C(O)(CO)C(C[C@@H]4O[C@H]2C[C@H]1O3)O%11)O%10)CC8O[C@@H]7[C@@H](O9)[C@H]6O5 (some centres not stated) .
0.00517 µM

Identify measured TGI obtained with HS 578T breast for Cn1c(=O)c2[nH]c(SCc3ccccn3)nc2n(C)c1=S .
> 100 µM

Identify measured TGI obtained with HS 578T breast for O=C(N/N=C/c1ccccc1O)c1ccccc1Nc1ccnc(C(F)(F)F)c1 .
> 100 µM

Identify measured TGI obtained with HS 578T breast for CCC(C)C(=O)OC1CC2(C)C(c3ccoc3)OC(=O)CC23OC2(C)OC34C(OC(=O)C(C)C)C3(O)C(OC(=O)C5(C)OC5C)C5(C)CC3(O)C(C)(C5CC(=O)OC)C14O2 (configuration not stated) .
> 100 µM

Identify measured TGI obtained with HS 578T breast for Oc1ccc(NCc2nc3ccccc3[nH]2)cc1 .
79.2 µM

Identify measured TGI obtained with HS 578T breast for C[C@@H]1OC(O)[C@@H](F)[C@H](O)[C@@H]1O (some centres not stated) .
> 100 µM

Identify measured TGI obtained with HS 578T breast for O=c1c(-c2ccc(Cl)cc2)nnc2n(Cc3ccccc3)c3ccccc3n12 .
> 100 µM

Identify measured TGI obtained with HS 578T breast for COc1cc([N+](=O)[O-])cc2c3c(n(C)c12)[C@@]1(C)CCC2c4ccc(OCc5ccccc5)cc4CCC2C1C3 (some centres not stated) .
> 100 µM

----------
Exercise: for every item that follows, state its recorded TGI.
Tested on: KM12 colon
experimental details: NCI tumour cell line growth inhibition, 48 h

Identify measured TGI obtained with KM12 colon for O=C(Nc1cccc(O)c1)C(=O)C(C(=O)c1ccccc1F)C1OC(=O)c2ccccc21 (configuration not stated) .
71 µM

Identify measured TGI obtained with KM12 colon for CC1(C)CNC(=O)C2(C=NC(C)(C)CNC(=O)C3(C=N1)CCCO3)CCCO2 (configuration not stated) .
> 10 µM

Identify measured TGI obtained with KM12 colon for C[C@]12CC[C@H]3[C@@H](CC=C4C[C@@H](O)CC[C@@]43C)[C@@H]1CC[C@@H]2N(CCO)CCO .
> 100 µM

Identify measured TGI obtained with KM12 colon for C=C1CC(C)(c2ccc(Nc3nc4ccccc4c4occc34)cc2)OC1=O (configuration not stated) .
34 µM

Identify measured TGI obtained with KM12 colon for Cc1c2ncccc2cc2oc3ccccc3c(=O)c12 .
> 100 µM

Identify measured TGI obtained with KM12 colon for COC(=O)CN1CCSC1=NC#N .
> 100 µM

Identify measured TGI obtained with KM12 colon for COC(=O)C1=Nc2c(C)nn(-c3ccccc3)c2N=C(c2ccc([N+](=O)[O-])cc2)C1 .
> 10 µM

Identify measured TGI obtained with KM12 colon for O=C1CCC(=O)N2CCCCN12 .
> 100 µM

Identify measured TGI obtained with KM12 colon for COc1ccc(-c2c(C#N)c(N)nc3c2CCS(=O)(=O)c2ccccc2-3)cc1 .
> 100 µM

Identify measured TGI obtained with KM12 colon for CC(=O)CNC(=O)OC(C)(C)C .
> 100 µM

Identify measured TGI obtained with KM12 colon for N#Cc1ccc(O)c(C2=NCC(c3cccc(Oc4ccccc4)c3)O2)c1 (configuration not stated) .
23.1 µM

Identify measured TGI obtained with KM12 colon for COc1ccc(-c2cc(=O)c3ccc(O)cc3o2)cc1OC .
> 100 µM
